Listed sequences paired with reported PBM binding z-score
Test system: LXRb:RXRa (NR concentration 270 nM, RXRa partner concentration 90 nM)
Test: PBM binding z-score (relative to random genomic background probes); higher = stronger binding; sequences stand for … in GC…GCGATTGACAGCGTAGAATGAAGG
// return a plain number; no unit text

Known PBM binding z-score results, listed for orientation:
AGAATGAGGGTAAGATCAGGGAAACAGAATACAT: 0.566
CCAGACAGGTGAGATGGTAACTCAGCCTCGATTA: -0.0689
ACTATTAGTTGACTTTGGGCAACCGATACGACGC: 0.155

Challenge: Recorded PBM binding z-score of `TCTGCTAGGTCAACGAAGGTCAGCTAATCTGCTA` , please.
Response given: 3.81

Challenge: Recorded PBM binding z-score of `CCTACTGGGCCATTCAGAGGTCATTTATCATATG` , please.
Response given: 4.14

Challenge: Recorded PBM binding z-score of `TCGAGTAGGTTACCAATGGGGCATTAAGCTTTCT` , please.
Response given: 0.663

Challenge: Recorded PBM binding z-score of `ACTAGCAGGCCATGGGTCACTCAAGATTAGTCCG` , please.
Response given: 0.694

Challenge: Recorded PBM binding z-score of `ACAGACAGGTGATGAAGGCAACTCAGGCTATCAT` , please.
Response given: -0.706

Challenge: Recorded PBM binding z-score of `GCGACAGGGGCAAAGCAGGTTACCATAAGGTTGG` , please.
Response given: 0.691

Challenge: Recorded PBM binding z-score of `CGTCCAAGGTCAGCAGGTCAGTAAAAGCGACGTG` , please.
Response given: 3.22

Challenge: Recorded PBM binding z-score of `GCTAGTTGGTCAGTAAAAGGTCACAAACCGGTCG` , please.
Response given: 3.99

Challenge: Recorded PBM binding z-score of `ATCGAAAGGTCGACGAGGTGAGCATACACCGTTT` , please.
Response given: 2.6

Challenge: Recorded PBM binding z-score of `CAAACTAGGTCAAGAGGTCAACGTCCGCTTCCCG` , please.
Response given: 5.27

Challenge: Recorded PBM binding z-score of `TCTTGTAGATCAAACAGGTTAAGAAAGCCTGAGT` , please.
Response given: 0.509

Challenge: Recorded PBM binding z-score of `TCTTGTAGATCAAGCAGGATAAGAAAGCCTGAGT` , please.
Response given: -0.411

----------
Test system: PPARg DBDmut:RXRa IVT, anti-PPARg (DBD mutation: PPARg1 K132A/R137A, NR concentration 270 nM, RXRa partner concentration 90 nM)
Experiment: PBM binding z-score (relative to random genomic background probes); higher = stronger binding; sequences stand for … in GC…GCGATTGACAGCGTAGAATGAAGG
Classification field: enter yes for PBM binding z-score values not below 0.9, no for values below it.

CCTTACGGGTAACTGACAGGTTATAGCATTTGGA: no
TCATATAGGGAAACAGGTGAAAGTCCGTAAGTTA: no
TCTATTAGTTGAGGGGCAACCGACGAGTCCGTTT: no

Challenge: Does PBM binding z-score meet or surpass 0.9 for `AATACAGGGTCATCGGAGGCCAGAGTACGCACAG` ?
Response given: yes

Challenge: Does PBM binding z-score meet or surpass 0.9 for `CAAACTAGGTCACCCGAAGGTCAAAGTCCGCATG` ?
Response given: yes

Challenge: Does PBM binding z-score meet or surpass 0.9 for `CCTTACGGGTCACGAGGTTAAAGCACGACGAGCG` ?
Response given: no

Challenge: Does PBM binding z-score meet or surpass 0.9 for `GCTTACGGGTCAAATGTTATAGCATGAATAGAAT` ?
Response given: yes

Challenge: Does PBM binding z-score meet or surpass 0.9 for `TAGCCTAGGGCATGGGCCAGTATACCACGCGAAC` ?
Response given: no

Challenge: Does PBM binding z-score meet or surpass 0.9 for `TCTATTGGTTGAAGGGCAACCGACGAGTCCGTTT` ?
Response given: no

Challenge: Does PBM binding z-score meet or surpass 0.9 for `ACTAGTTGGTCAGCTGAGGACACACACAATTCGG` ?
Response given: no

Challenge: Does PBM binding z-score meet or surpass 0.9 for `GCATTTAGGTAATACAAGGTGAAAGTCCGATTGT` ?
Response given: yes

Challenge: Does PBM binding z-score meet or surpass 0.9 for `AGAACGAGGGCTCGCTGAGTTGATAGCAGAGTAG` ?
Response given: no

Challenge: Does PBM binding z-score meet or surpass 0.9 for `ATCGCTAGGTAAAGATAGTTCAGTGAATGCAAAT` ?
Response given: no

Challenge: Does PBM binding z-score meet or surpass 0.9 for `ATATGTAGGTTACATCCGGGTCAATCAGGCTATG` ?
Response given: yes

Challenge: Does PBM binding z-score meet or surpass 0.9 for `CAGCCTAGGTCATGGCCAGTATAGGAGGAACGTT` ?
Response given: no

Challenge: Does PBM binding z-score meet or surpass 0.9 for `CCGACTGGGGCAGAGGTTACCATACTCAGTACGA` ?
Response given: no

Challenge: Does PBM binding z-score meet or surpass 0.9 for `GCTATTGGTTGAAAGGGCAACCGAATGATTCTCG` ?
Response given: no

Challenge: Does PBM binding z-score meet or surpass 0.9 for `ATCGAGAGGTCGTGAGGTGAGTATACAGAAAGGC` ?
Response given: yes

Where do the numbers come from? From the supplement of paper PMC6555819.
